Target: prostaglandin E2 receptor
Assay: inhibition of [^3 H]-PGE2 receptor binding in rat uterus membrane fraction
Details: Table I; 5 nM [^3 H]-PGE2, rat uterus crude membrane fraction, pH 6.0, 1 hour at room temperature; read-out: IC50, inhibitory effects of PGE2 receptor binding in rat
MEASURE: IC50 (nM)

CC1(C)[C@H]2C[C@H](NS(=O)(=O)c3ccc(Cl)cc3)[C@@H](C/C=C\CCCC(=O)O)[C@@H]1C2
750
CC(C)(C)c1ccc(S(=O)(=O)N[C@H]2C[C@H]3C[C@@H]([C@@H]2C/C=C\CCCC(=O)O)C3(C)C)cc1
6300
O=C(O)CCC/C=C\C1CC2CC(NS(=O)(=O)c3ccc(Br)cc3)C1C2 (stereo not drawn) [U.S. Pat. No. 5168101 1 (b)]
3500
CCCCS(=O)(=O)N[C@H]1C[C@H]2C[C@@H]([C@@H]1C/C=C\CCCC(=O)O)C2(C)C
5000
O=C(O)CCC/C=C\C[C@H]1CCC[C@@H]1NS(=O)(=O)c1ccc(Br)cc1 (relative stereo)
200
CC1(C)[C@H]2C[C@H](NS(=O)(=O)c3ccc(F)cc3)[C@@H](C/C=C\CCCC(=O)O)[C@@H]1C2 [3 (e)]
2600
O=C(O)CCCC=CC1C2CCC(C2)C1CNS(=O)(=O)c1ccc(Br)cc1 (stereo not drawn) [U.S. Pat. No. 5168101 1 (cc)]
390
COc1ccc(S(=O)(=O)N[C@H]2C[C@H]3C[C@@H]([C@@H]2C/C=C\CCCC(=O)O)C3(C)C)cc1
820

a. CC1(C)[C@H]2C[C@H](NS(=O)(=O)c3ccc(I)cc3)[C@@H](C/C=C\CCCC(=O)O)[C@@H]1C2
b. O=C(O)CCC/C=C\C1CC2CC(NS(=O)(=O)c3ccc(Br)cc3)C1C2 (stereo not drawn) [U.S. Pat. No. 5168101 1 (c)]
c. Cc1ccc(S(=O)(=O)N[C@H]2C3CCC(CC3)[C@@H]2C/C=C\CCCC(=O)O)cc1 (relative stereo) [5 (a)]
d. Cc1ccc(S(=O)(=O)N[C@H]2C3CCC(CC3)[C@@H]2C/C=C\CCCC(=O)O)cc1 [5 (d)]
Order the items by recorded IC50; the first position goes to the largest value. Thanks in advance for listing the labels in the requested order.
c, d, b, a
